B1: Histone-lysine N-methyltransferase SETD2, residues 2382 to 2430; numbered along this chain, Q9BYW2 (parent)
chain: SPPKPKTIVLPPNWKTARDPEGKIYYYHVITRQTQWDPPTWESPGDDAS

- Variants of: B1
- experimental.protocol: abundance fitness (aPCA) (normalised: wild type 0, dead -1); higher = more abundant; growth selection in yeast, the domain comes from the species named
- conditions: Homo sapiens
Response key: condition met means abundance fitness >= -0.3; condition not met means abundance fitness < -0.3.

record.sequence | group
SPPKPKTIVLPPNWKTARDPEGKIYYYHVITRQTQWDHPTWESPGDDAS [P38H] | condition met
SPPKPKTIVCPPNWKTARDPEGKIYYYHVITRQTQWDPPTWESPGDDAS [L10C] | condition met
SPPKPKTIVLPPNWKTARDCEGKIYYYHVITRQTQWDPPTWESPGDDAS [P20C] | condition not met
SPPKPKTIVLPPNWKTARDPEGKIYYYHVITRQTQWDPPTWESPGDDAC [S49C] | condition not met
SPPKPKTIVLFPNWKTARDPEGKIYYYHVITRQTQWDPPTWESPGDDAS [P11F] | condition not met
SPPKPKTIVLPPNWKTARDPEGKIYYYHVITRQTQWDPPTWESPGDDKS [A48K] | condition met
SPPKPKTIVLPPNWKTARDPEGKIYYYHKITRQTQWDPPTWESPGDDAS [V29K] | condition met
SPPKPKTIVLPPNWKTARDPEGKIYYYHVITRQTQWYPPTWESPGDDAS [D37Y] | condition not met
SPPKPKTIVLPPNWKTARDAEGKIYYYHVITRQTQWDPPTWESPGDDAS [P20A] | condition met
SPPKPKTIVLPPNWKNARDPEGKIYYYHVITRQTQWDPPTWESPGDDAS [T16N] | condition not met
SPPKPKTIVLPPNWKTARDPEGKIYYYHQITRQTQWDPPTWESPGDDAS [V29Q] | condition met
SPPKPKTIVLPPNWKTARDPEGKIYYYHVITRQTGWDPPTWESPGDDAS [Q35G] | condition not met
SPPKPKTIVLPPNWKTARDPEGKIYYYHVITRQTQWDPPWWESPGDDAS [T40W] | condition met

Values from the Human Domainome abundance scans (Beltran et al. 2025)
